Test system: SNB-75 CNS
Test: NCI-60 one-dose screen, 48 h (100 = growth as untreated, 0 = no growth, -100 = all killed)
Settings: 10 µM unless noted
About 83,000 compounds went through this panel and 20% of them were active in at least one assay; those are over-represented in the sample as a whole.
Outcome label depends on growth relative to 80%: at/above gives 1, below gives -1.

Record excerpt, results attached:
COMPOUND: C[n+]1cccc(CC(=O)NO)c1
GROUP LABEL: 1

COMPOUND: C=C1C(=O)O[C@H]2[C@H]1CC/C(COC(=O)C(=O)c1cn(C)c3ccc(OC)cc13)=C\CC[C@@]1(C)O[C@@H]21
GROUP LABEL: -1

Req: I'd appreciate it if you could say whether CCOC(=O)c1ccc(N2NC(=O)/C(=C/c3ccc([N+](=O)[O-])o3)C2=O)cc1 has growth at least equal to 80%.
Resp: 1

Req: Form field: growth at least 80%? Entry: N#Cc1c(-c2cccc(Cl)c2)cc(-c2cccc(Cl)c2)[nH]c1=O
Resp: -1

Req: Threshold query (growth >= 80%) on O=C(NC(CSSCC(NC(=O)c1ccccc1)C(=O)O)C(=O)O)c1ccccc1 (stereo not given)
Resp: 1

Req: Exam item: decide whether the reported growth for CCc1ccccc1-n1c(-c2ccc(Cl)cc2)cc(-c2ccc(OC)cc2)c(C#N)c1=O is at least 80%.
Resp: 1

Req: Record COc1ccc(C(=O)Nn2c(NCC(=O)N3c4ccccc4Sc4ccccc43)nnc2-c2ccc(O)cc2)cc1 ; criterion: growth no lower than 80%. Met?
Resp: 1

Req: # check: growth of Cc1c(C(=O)OC(=NC2CCCCC2)NC2CCCCC2)sc2c1c(=O)nc1c(C#N)n[nH]n12 is greater than or equal to 80%
Resp: 1

Req: hey, is growth for this one >= 80%? COc1ccc(C2=NN(C(=O)c3cc(OC)c(OC)c(OC)c3)C(c3ccc(Cl)cc3)C2)cc1OC (stereo not given)
Resp: -1

Req: Does growth meet or surpass 80% for CCN(CC)CCCC(C)Nc1c2ccc(Cl)cc2nc2ccc(O)cc12 (stereo not given) ?
Resp: -1

Req: Does COC(=O)c1ccc(CSc2nnc(-c3c(C)nc4ccc(C)cn34)o2)cc1 have a reported growth of at least 80%?
Resp: 1

---

System: HCT-116 colon
Assay: NCI-60 one-dose screen, 48 h (100 = growth as untreated, 0 = no growth, -100 = all killed)
Conditions: 10 µM unless noted
Method: Growth inhibition of the HCT-116 human tumor cell line is measured as a screen for anti-cancer activity. Cells are grown in 96 well plates and exposed to the test compound for 48 hours. Compounds are tested at a single concentration, which is 10^-5 M for most compounds. The reported endpoint is percent growth (GI% or GIPRCNT), where numbers from 0 - 100% represent growth inhibition, and numbers from -100% - 0 represent cell death. For example, a value of 40 represents 60% growth inhibition. […]
About 83,000 compounds went through this panel and 20% of them were active in at least one assay; those are over-represented in the sample as a whole.
Answer no (0) if growth is under 90%, and yes (1) if it is 90% or more.

// below: answered molecules
MOLECULE: N#CC1=C(/N=C/c2ccccc2)Oc2c(ccc3ccccc23)C1c1ccccc1 (stereo not given)
GROUP LABEL: no (0)
//
MOLECULE: Cc1ccc(NS(=O)(=O)c2ccc3c(c2)C(=O)CC(c2ccc(C(=O)C(C)C)cc2)N3)cc1C (stereo not given)
GROUP LABEL: no (0)
//
MOLECULE: COc1cc(/C=N/n2c(CN3CCOCC3)nc3ccccc3c2=O)cc(OC)c1OC
GROUP LABEL: yes (1)
//
MOLECULE: O=C(N/N=C/c1ccncc1)c1ccc(C(F)(F)F)nc1Nc1cccc(C(F)(F)F)c1
GROUP LABEL: no (0)

Req: Has COc1ccc(Cl)cc1NC(=O)C(Br)C(Br)C(=O)O (stereo not given) a recorded growth greater than or equal to 90%?
Resp: no (0)

Req: Given the entry CCCCCCCCCCCCCCCCCCOc1ccccc1CC(=O)OCCC[N+](C)(C)C , answer whether its growth meets or surpasses 90%.
Resp: no (0)

Req: Is growth for Cc1nc2ccccc2n1CC1NC(=O)NC1=O (stereo not given) at or above 90%?
Resp: yes (1)

Req: // inclusive: growth at least 90%? input: Clc1ccc(-c2c3ccc(=[N+]4CCCCC4)cc-3oc3cc(N4CCCCC4)ccc23)cc1
Resp: no (0)

Req: # bool: growth of COc1cc(/C=C2\C(=O)ON=C2C)cc(OC)c1OC >= 90%
Resp: yes (1)

Req: Quick check, growth >= 90%? CCN1C(=O)N(CC)C2Nn3c(s/c(=C4\C(=O)N(C)c5ccccc54)c3=O)=NC21 (stereo not given)
Resp: no (0)

Req: Can COc1c(CCC[P+](c2ccccc2)(c2ccccc2)c2ccccc2)cc2c(c1OC)OCO2 be said to have growth at or above 90%?
Resp: no (0)

Req: // inclusive: growth at least 90%? input: N#Cc1c(-c2ccccc2)cc(-c2ccc(Nc3nc(Nc4ccc(F)cc4)nc(Nc4ccc(F)cc4)n3)cc2)nc1N
Resp: no (0)

Req: Check the entry O=C1Nc2ccc(F)cc2C12Nc1cc(Cl)ccc1S2 (stereo not given) : does growth equal or exceed 90%?
Resp: no (0)

Req: hey, is growth for this one >= 90%? CCN1CCN(c2cc(C)nc(NCc3cc(Nc4ccnc5cc(Cl)ccc45)ccc3F)n2)CC1
Resp: no (0)

Req: Please check the record CCCCCCCC/C=C\CCCCCCCCOc1ccccc1CC(=O)NCC[N+](C)(C)C and state if its growth is at or above 90%.
Resp: no (0)

Req: Could you verify whether the entry Cc1ccc(C(=O)C2=C(O)C(=O)N(Cc3cccnc3)C2c2ccccc2F)o1 (stereo not given) shows growth of no less than 90%?
Resp: yes (1)

Req: Quick check, growth >= 90%? O=C(CSc1nccc(Nc2ccc(S(=O)(=O)Nc3nccs3)cc2)n1)c1ccc(F)cc1
Resp: yes (1)

Req: Confirm if growth reported for the molecule CCN1C(=O)N(CC)C2Nn3c(s/c(=C\c4cccc([N+](=O)[O-])c4)c3=O)=NC21 (stereo not given) is 90% or above.
Resp: no (0)

Req: Is the recorded value of growth equal to or greater than 90% for this molecule? COc1ccc(-c2[nH]c(=S)n(C(CC3(C)NCC(=O)N3n3c(-c4ccccc4)cc(C)nc3=S)c3ccc(OC)cc3)c(=O)c2Br)cc1 (stereo not given)
Resp: no (0)

Req: Quick check, growth >= 90%? COc1ccc2[nH]c(O)c(/C=c3/cc4c(c(-c5ccc(F)c(OC)c5)n3)=Nc3ccccc3-4)c2c1
Resp: no (0)

Req: Form field: growth at least 90%? Entry: O=C(Nc1ccccc1-c1nc2ccccc2c(=O)[nH]1)c1cc2ccccc2[nH]1
Resp: no (0)

Req: Does growth meet or surpass 90% for Cc1ccc2nc3ccccc3c(NCc3ccccc3)c2c1 ?
Resp: no (0)

---

System: NCI-H522 lung
Test: NCI-60 one-dose screen, 48 h (100 = growth as untreated, 0 = no growth, -100 = all killed)
Details: 10 µM unless noted
Compounds without any hit were thinned out: in the full panel of roughly 83,000, 20% have a hit.
ATTRIBUTE MEASURED: growth (%)
Write the answer as a number in %, unit excluded.

COMPOUND: COc1ccc(CN2C(=O)C(Cl)=C(Nc3cccc(C(F)(F)F)c3)C2=O)cc1
UNIT SPEC: %
growth: 40.6

COMPOUND: CC(=O)c1ccc(NCC(=O)Nc2ccccn2)cc1
UNIT SPEC: %
growth: 107

COMPOUND: COC1=C(OC)C(=O)C(OC)=C(OC)C1=O
UNIT SPEC: %
growth: 108

COMPOUND: Cc1ccc(/C=C/c2c(C(=O)/C=C/c3ccc(C(F)(F)F)cc3)c(C)nc3ccccc23)cc1
UNIT SPEC: %
growth: -10.5

COMPOUND: COc1cccc(-c2nn(-c3ccccc3)cc2-c2ccnc(NCCCNC(=O)c3ccc(F)cc3)c2)c1
UNIT SPEC: %
growth: 51.8

Req: growth for NC(=O)c1ccc[n+](Cc2ccc(Cl)cc2Cl)c1 ?
Resp: 79.4

Req: // query growth value for entry COc1ccc2[nH]c(O)c(/C=c3/cc4c(c(-c5cc(OC)c(OC)c(OC)c5)n3)=Nc3ccccc3-4)c2c1
Resp: 50.4

Req: Quick check: growth of O=[N+]([O-])c1ccc(C2CC(c3ccccc3)=Nc3ccccc3S2)cc1 (stereo not given) ?
Resp: 94.6

Req: Which value of growth has been reported for Cc1c(C(=O)NC(Cc2ccccc2)C(O)C(=O)NCc2ccc(F)cc2)[nH]c2ccccc2c1=O (stereo not given) in the records?
Resp: 93.5

Req: Requested read-out: growth. Entry: COc1ccc(C2=Nc3c(N)ncnc3NC(c3ccc4c(c3)OCO4)C2)cc1 (stereo not given)
Resp: 87.4
